# Test Description: in vivo
# Recorded Conditions: BALB/c nude, mouse, in vivo, iv, total radioactivity, uptake Spleen
Measured Metric: tissue uptake at 24 h (%ID/g)
State the answer as a number, implicitly in %ID/g.

Prompt line: # lookup: tissue uptake at 24 h of C[C@@H](O)[C@H](NC(=O)[C@@H]1CSSC[C@H](NC(=O)[C@@H](Cc2ccccc2)NC(=O)COCCOCCNC(=O)[C@H](CCCCNC(=O)c2cccc(NC(=O)N[C@@H]3CN(C4CCCCC4)c4ccccc4N(CC(=O)C(C)(C)C)C3=O)c2)NC(=O)CN2CCN(CC(=O)O)CCN(CC(=O)O)CCN(CC(=O)O)CC2)C(=O)N[C@@H](Cc2ccc(O)cc2)C(=O)N[C@H](Cc2c[nH]c3ccccc23)C(=O)N[C@@H](CCCCN)C(=O)N[C@@H]([C@@H](C)O)C(=O)N1)C(=O)O [Compound I-37, DOTA-K(Z360)-OEG-f[CYwKTC]T-OH]
Response line: 0.2
